Assay: Cytotoxicity in uninfected treated cultures (HRV type 1A assay)
Type: cell-based, human
Conditions: human
metric_name: CC50 (µg/mL)
Give the value in µg/mL but do not write µg/mL after it.

Query :: Specify reported CC50 for the molecule shown: CC(C)S(=O)(=O)n1c(N)nc2ccc(/C(=N/O)c3ccccc3)cc21
Result :: 0.49

Query :: Give the reported value of CC50 for this record: Cc1cc(CCCOc2c(C)cc(-c3noc(C(F)(F)F)n3)cc2C)on1 [Pleconaril, reference compound]
Result :: 10

Query :: Fill in CC50 for record NC(=O)c1ncn([C@@H]2O[C@H](CO)[C@@H](O)[C@H]2O)n1
Result :: 98.3

----------
Tested on: mammalian cell culture
Format: cell-based
Protocol: Activity against Enteroviruses in Mammalian Cell Culture Assays Compounds 50 and 56 of the Invention were Tested Against Other Picornaviruses Using Similar cell based assays to those described in example 30 above and the results are shown in Table 6 below: […]
metric_name: Activity on Coxsackie A21 CC50 (µg/mL)
Record the value in µg/mL, omitting the unit from your answer.

Query :: Return Activity on Coxsackie A21 CC50 for the following compound: Cc1cc(-c2noc(C(F)(F)F)n2)cc(C)c1OCCCc1cc(COCCOCCOCCOCCOCc2ccc(COCCOCCOCCOCCOCc3cc(CCCOc4c(C)cc(-c5noc(C(F)(F)F)n5)cc4C)on3)cc2)no1
Result :: 11.1

----------
Test system: human epidermoid carcinoma of the mouth (KB) cells
Experiment: Cytotoxicity in uninfected treated cultures (HRV type 2 assay)
Method: The ability of compounds to suppress virus replication and thereby protect cells from HRV-induced CPE was measured using human embryo lung (MRC-5) and human epidermoid carcinoma of the mouth (KB) cells infected with HRV type 1A and HRV type 2, respectively. […] At this time all infected cultures were examined by eye using a light microscope and CPE scored on a scale of 0 (no CPE) to 4 (maximum CPE). […] Vital dye staining to measure cell viability was also used to quantify CPE and cytotoxic effects. […]
metric_name: Activity on Rhinovirus Type 2 CC50 (µg/mL)
Reply with just the number (in µg/mL).

Query :: System human epidermoid carcinoma of the mouth (KB) cells. Read-out Activity on Rhinovirus Type 2 CC50. Item Cc1cc(-c2ccccc2)cc(C)c1OCCCc1cc(COCCOCCOCCO)no1 . Report value.
Result :: 5

Query :: Provide human epidermoid carcinoma of the mouth (KB) cells Activity on Rhinovirus Type 2 CC50 reading for Cc1cc(-c2noc(C(F)(F)F)n2)cc(C)c1OCCCc1cc(COCCOCCOCCOCCOCc2ccc(COCCOCCOCCOCCOCc3cc(CCCOc4c(C)cc(-c5noc(C(F)(F)F)n5)cc4C)on3)cc2)no1 .
Result :: 2

Query :: Return reported Activity on Rhinovirus Type 2 CC50 for target or system human epidermoid carcinoma of the mouth (KB) cells, item Cc1cc(-c2ccccc2)cc(C)c1OCCCc1cc(COCCOCCOCCOCCOCCOCCO)no1 .
Result :: 5

Query :: Under human epidermoid carcinoma of the mouth (KB) cells: report Activity on Rhinovirus Type 2 CC50 of Cc1cc(-c2noc(C(F)(F)F)n2)cc(C)c1OCCCc1cc(COCCOCCOCc2cc(CCCOc3c(C)cc(-c4noc(C(F)(F)F)n4)cc3C)on2)no1 .
Result :: 2

----------
Tested on: human embryo lung (MRC-5) cells
Assay: Cytotoxicity in uninfected treated cultures (HRV type 1A assay)
Assay type: cell-based
Hi! Could you tag entries with Activity on Rhinovirus Type 1A CC50 below 10 µg/mL as Y, and those at or above as N? Much appreciated.

Query :: Lab note: Activity on Rhinovirus Type 1A CC50 threshold 10 µg/mL. Does this compound come in strictly under it? Cc1cc(-c2ccccc2)cc(C)c1OCCCc1cc(COCCOCCOCCO)no1
Result :: N

Query :: Would you kindly verify if Activity on Rhinovirus Type 1A CC50 of Cc1cc(-c2noc(C(F)(F)F)n2)cc(C)c1OCCCc1cc(COCCOCCOCCO)no1 is strictly less than 10 µg/mL?
Result :: Y

Query :: Report whether reported Activity on Rhinovirus Type 1A CC50 is lower than 10 µg/mL (strictly) for Cc1cc(-c2ccccc2)cc(C)c1OCCCc1cc(COCCOCCOCCOCCOCCOCCOCc2cc(CCCOc3c(C)cc(-c4ccccc4)cc3C)on2)no1
Result :: N

Query :: Activity on Rhinovirus Type 1A CC50 under 10 µg/mL? Item: Cc1cc(-c2ccccc2)cc(C)c1OCCCc1cc(COCCOCCOCCOCc2cc(CCCOc3c(C)cc(-c4ccccc4)cc3C)on2)no1
Result :: N

Query :: Lab note: Activity on Rhinovirus Type 1A CC50 threshold 10 µg/mL. Does this compound come in strictly under it? Cc1cc(-c2ccccc2)cc(C)c1OCCCc1cc(COCCOCCOCCOCCOCCOCCO)no1
Result :: N

Query :: Could you please tell me whether Activity on Rhinovirus Type 1A CC50 recorded for Cc1cc(-c2ccccc2)cc(C)c1OCCCc1cc(COCCOCCOCCOCCNC(=O)Nc2ccc(Cc3ccc(NC(=O)NCCOCCOCCOCCOCc4cc(CCCOc5c(C)cc(-c6ccccc6)cc5C)on4)cc3)cc2)no1 is less than 10 µg/mL?
Result :: N

----------
Experiment: Cytotoxicity in uninfected treated cultures (HRV type 2 assay)
Conditions: human
Method: The ability of compounds to suppress virus replication and thereby protect cells from HRV-induced CPE was measured using human embryo lung (MRC-5) and human epidermoid carcinoma of the mouth (KB) cells infected with HRV type 1A and HRV type 2, respectively. […] At this time all infected cultures were examined by eye using a light microscope and CPE scored on a scale of 0 (no CPE) to 4 (maximum CPE). […] Vital dye staining to measure cell viability was also used to quantify CPE and cytotoxic effects. […]
metric_name: CC50 (µg/mL)
Write the value in µg/mL as a bare number.

Query :: Entry CC(=O)NCCOCCOCc1cc(CCCOc2c(C)cc(-c3ccccc3)cc2C)on1 [Compound 19] needs its CC50 filled in; supply it.
Result :: 2

----------
Kindly state CC50 for each of the entries shown.
Test: Cytotoxicity in uninfected treated cultures (HRV type 2 assay)
Conditions: human, KB cells, uninfected

Query :: State its CC50: Cc1cc(CCCOc2c(C)cc(-c3noc(C(F)(F)F)n3)cc2C)on1 [Pleconaril, reference compound]
Result :: 0.5 µg/mL

Query :: Please list CC50 recorded for the compound COCc1cc(CCCOc2c(C)cc(-c3ccccc3)cc2C)on1
Result :: > 5 µg/mL

----------
System: mammalian cell culture
Test: in vitro
Type: cell-based
Can you tell me Activity on Echo 21 CC50 for the items I'm about to list?
Form entry: value (µg/mL) — number only.

Query :: Kindly indicate its recorded Activity on Echo 21 CC50. Item: Cc1cc(-c2noc(C(F)(F)F)n2)cc(C)c1OCCCc1cc(COCCOCCOCCOCCOCc2ccc(COCCOCCOCCOCCOCc3cc(CCCOc4c(C)cc(-c5noc(C(F)(F)F)n5)cc4C)on3)cc2)no1
Result :: 7.93

Query :: Determine from records and report Activity on Echo 21 CC50 for Cc1cc(-c2noc(C(F)(F)F)n2)cc(C)c1OCCCc1cc(COCCOCCOCc2cc(CCCOc3c(C)cc(-c4noc(C(F)(F)F)n4)cc3C)on2)no1
Result :: 46.3

----------
Assignment: determine reported Activity on Enterovirus 70 CC50 for the given molecules.
Tested on: mammalian cell culture
Assay type: cell-based

Query :: For the molecule Cc1cc(-c2noc(C(F)(F)F)n2)cc(C)c1OCCCc1cc(COCCOCCOCCOCCOCc2ccc(COCCOCCOCCOCCOCc3cc(CCCOc4c(C)cc(-c5noc(C(F)(F)F)n5)cc4C)on3)cc2)no1 , report Activity on Enterovirus 70 CC50.
Result :: > 50 µg/mL

Query :: Note Activity on Enterovirus 70 CC50 for the molecule shown: Cc1cc(-c2noc(C(F)(F)F)n2)cc(C)c1OCCCc1cc(COCCOCCOCc2cc(CCCOc3c(C)cc(-c4noc(C(F)(F)F)n4)cc3C)on2)no1
Result :: > 50 µg/mL

----------
Test system: human epidermoid carcinoma of the mouth (KB) cells
Experiment: Cytotoxicity in uninfected treated cultures (HRV type 2 assay)
Can you tell me Activity on Rhinovirus Type 2 CC50 for the items I'm about to list?

Query :: Please supply the value of reported Activity on Rhinovirus Type 2 CC50 for the item Cc1cc(-c2ccccc2)cc(C)c1OCCCc1cc(COCCOCCOCCOCCOCCOCCOCc2cc(CCCOc3c(C)cc(-c4ccccc4)cc3C)on2)no1
Result :: > 0.5 µg/mL

Query :: Provide one value: measured Activity on Rhinovirus Type 2 CC50 of Cc1cc(-c2noc(C(F)(F)F)n2)cc(C)c1OCCCc1cc(COCCOCCOCCO)no1
Result :: > 1 µg/mL

Query :: Please give measured Activity on Rhinovirus Type 2 CC50 of the following entry: Cc1cc(-c2ccccc2)cc(C)c1OCCCc1cc(COCCOCCOCCOCc2cc(CCCOc3c(C)cc(-c4ccccc4)cc3C)on2)no1
Result :: > 5 µg/mL

Query :: Using the record for Cc1cc(-c2ccccc2)cc(C)c1OCCCc1cc(COCCOCCOCCOCCNC(=O)Nc2ccc(Cc3ccc(NC(=O)NCCOCCOCCOCCOCc4cc(CCCOc5c(C)cc(-c6ccccc6)cc5C)on4)cc3)cc2)no1 , state its measured Activity on Rhinovirus Type 2 CC50.
Result :: > 5 µg/mL
